- method-notes: Toxicity liver stage against HepG2, at 10uM
- Assay type: cell-based
- Parameters: test concentration 10 uM, cell line HepG2-A16-CD81EGFP
- condition-info: human, HepG2-A16-CD81EGFP cells; read-out: INHIBITION
Give cytotoxicity at 10 µM for every item shown.
Answer in %, number only, no unit symbol.

[Q] Query (compound): COCCC1COC2(CCN(C(=O)Cc3ccccc3)CC2)C1 (stereo not given) ; field requested: cytotoxicity at 10 µM
[A] -69.2

[Q] Can you check "Cc1cc(C(=O)O)cc(S(=O)(=O)Nc2ccc3c(c2)OCCCO3)c1C" next?
[A] -4.72

[Q] For "O=C(Cc1ccc2c(c1)OCCO2)NC1CC1" then?
[A] -11.2

[Q] Then "COc1ccnc(N2CCCN(C(=O)Cc3ccc(C)s3)CC2)n1" ?
[A] -2.12

[Q] // same read-out, input: CC(=O)N1CCC(Cc2nccnc2-c2c(C)n[nH]c2C)C1 (stereo not given)
[A] 10.7

[Q] Okay, and CN1CCNC(Cc2ccc(-c3ccncc3)cc2)C1=O (stereo not given) ?
[A] -25.8

[Q] Try the compound "Cc1nc(CNC(=O)N(Cc2ccccc2)CC(C)(C)O)oc1C"
[A] -2.28

[Q] Also NC(=O)N1CCCC(C(=O)NCc2ccccc2OC(F)(F)F)C1 (stereo not given) ?
[A] 1.01

[Q] For CCc1nc(CCNC(=O)C2CCOC2)sc1C (stereo not given) then?
[A] -20.4

[Q] Moving on to the next compound: "Cc1ccnn1CCC(=O)N(Cc1ccsc1)CC(C)C"
[A] -57.4

[Q] Entry "COCC(=O)N1CCC2(CCCN(Cc3ccc(Cl)cc3)CC2)CC1" please
[A] -0.153

[Q] Do the same for c1ccc(CN2CCCC(CNc3ncnc4c3CCNCC4)C2)cc1 (stereo not given) please
[A] -9.89

[Q] // query: CC(NC(=O)Nc1cccnc1N1CCCC1)c1ccccn1 (stereo not given)
[A] 8.05

[Q] Also check "CCOC(=O)Cn1ccc2cc(NC(=O)N3CCSCC3)ccc21"
[A] 9.68

[Q] # repeat for "O=C(CN1CCC(c2ccnn2CCO)CC1)NCc1ccco1"
[A] 1.68

[Q] Try this compound next: "CS(=O)(=O)N[C@H]1COC[C@@H]2CN(Cc3ccco3)C[C@@H]21"
[A] 9.12

[Q] Ok, now FC(F)(F)C1CCc2nnc(CNCc3ccsc3)n2C1 (stereo not given)
[A] 0.847

[Q] "Cc1n[nH]c(C)c1CCCN(C)Cc1c[nH]nc1-c1ccc(F)cc1" ?
[A] 3.45

[Q] Ok, now "Cc1ccc(O)c(CNc2cccc(CN3CCSCC3)c2)n1"
[A] -7.94

[Q] Follow-up item: COC1COC2(CCN(Cc3ccccc3Cl)CC2)C1 (stereo not given)
[A] -14.1

[Q] Likewise for "O=C(CCc1ccccc1)N1CCn2cc(CN3CCCC3)nc2C1" ?
[A] -1.66

[Q] What would you report for O=C1NCCN1C1CCCN(Cc2coc(-c3cccs3)n2)C1 (stereo not given) ?
[A] -4.39

[Q] Same question for "CSCc1noc(-c2nc3c([nH]2)CCCNC3=O)n1" please.
[A] -2.48

[Q] Please answer likewise for "COCCCN(Cc1cnc(-c2cccs2)nc1)C1CCN(C)CC1"
[A] -3.85

[Q] Another compound: "Cc1ccc(NC2CCN(C(=O)c3cnn(C(C)(C)C)c3)CC2)nn1"
[A] -0.939
